measured-target: aldose reductase (Homo sapiens)
Construct: partially purified aldose reductase preparation from human placenta; from tissue; host or cells: human placenta
assay-overview: aldose reductase activity, partially purified preparation from human placenta
Format: biochemical
condition-notes: 10^-6 M
In this section, each of the compounds is paired with its reported inhibition at 1 µM.

compound | measured-target | inhibition at 1 µM [%]
CCCCOc1ccc(C2SC(=O)NC2=O)cc1OC (stereo not shown) | aldose reductase (Homo sapiens) | 38.7
CCOc1cc(C2SC(=O)NC2=O)ccc1OC(C)=O (stereo not shown) | aldose reductase (Homo sapiens) | 59
CCOc1cc(C2SC(=O)NC2=O)ccc1O (stereo not shown) | aldose reductase (Homo sapiens) | 51.6
O=C1NC(=O)C(c2ccc3c(c2)OCO3)S1 (stereo not shown) | aldose reductase (Homo sapiens) | 47.4
CCCCOc1ccc(C2SC(=O)NC2=O)cc1OCCCC (stereo not shown) | aldose reductase (Homo sapiens) | 51.7
CCCCCCOc1ccc(C2SC(=O)NC2=O)cc1OCC (stereo not shown) | aldose reductase (Homo sapiens) | 37.7
CCCCCCOc1ccc(C2SC(=O)NC2=O)cc1OC (stereo not shown) | aldose reductase (Homo sapiens) | 32.2
CCCCCOc1ccc(C2SC(=O)NC2=O)cc1OC (stereo not shown) | aldose reductase (Homo sapiens) | 40.6
CCOc1ccc(C2SC(=O)NC2=O)cc1OCC (stereo not shown) | aldose reductase (Homo sapiens) | 57
CCCOc1ccc(C2SC(=O)NC2=O)cc1OCCC (stereo not shown) | aldose reductase (Homo sapiens) | 53.5

###

measured-target: aldose reductase (Homo sapiens, UniProt P15121)
Construct: partially purified aldose reductase preparation from human placenta; from tissue; host or cells: human placenta
assay-overview: aldose reductase activity, partially purified preparation from human placenta
Assay type: biochemical
condition-notes: 10^-6 M
endpoint-label: inhibition at 1 µM (%)

compound | u | reported-measurement
CCCCCOc1cc(C2SC(=O)NC2=O)ccc1OC (stereo not shown) [Example 10 - No. 20] | % | 30
CCOc1cc(C2SC(=O)NC2=O)ccc1OCC(C)(C)C (stereo not shown) [Example 10 - No. 14] | % | 28
CC(=O)Oc1ccc(C2SC(=O)NC2=O)cc1OC(C)=O (stereo not shown) [Example 10 - No. 5] | % | 76.9
COc1cc(C2SC(=O)NC2=O)ccc1OCCCC(C)C (stereo not shown) [Example 10 - No. 19] | % | 68.1
CCOc1cc(C2SC(=O)NC2=O)ccc1OCCCC(C)C (stereo not shown) [Example 10 - No. 15] | % | 60.6
COc1ccc(C2SC(=O)NC2=O)cc1OC (stereo not shown) [Example 10 - No. 1] | % | 57.1
O=C1NC(=O)C(c2ccc(O)c(O)c2)S1 (stereo not shown) [Example 10 - No. 6] | % | 41.8
